All figures here come from patent US20020137929A1.

Test system: ECHORC (Watergrass (Calif.))
Test: Postemergence weed control under flooded paddy conditions
Format: in vivo, Echinochloa oryzoides
Settings: rate 0.1250 kg/ha, postemergence weeds, 3-4 weeks after treatment
Source text: Results of herbicide evaluation are expressed on a rating scale (0-9). The scale is based upon a visual observation of plant stand, vigor, malformation, size, chlorosis and overall plant appearance as compared with a control. Plastic containers containing weeds which are 3 to 5 cm tall and rice seedlings at the 1.5 to 2.5 leaf stage are flooded with water. […] The compounds evaluated are reported by compound number given in Example 37.

- Compound: "C[C@@H](C(=O)O)N1C(=O)CS/C1=N/c1cc(-n2c(=O)cc(C(F)(F)F)n(C)c2=O)c(F)cc1Cl"
  Herbicidal rating ECHORC: 0.0
- Compound: "CCOC(=O)CN1C(=O)C(CC(=O)OC)S/C1=N/c1cc(-n2c(=O)cc(C(F)(F)F)n(C)c2=O)c(F)cc1Cl (stereo not drawn)"
  Herbicidal rating ECHORC: 7.0
- Compound: "CCOC(=O)CN1C(=O)C(CC(N)=O)S/C1=N/c1cc(-n2c(=O)cc(C(F)(F)F)n(C)c2=O)c(F)cc1Cl (stereo not drawn)"
  Herbicidal rating ECHORC: 3.0
- Compound: "CCOC(=O)CN1C(=O)C(Cc2ccccc2)SC1=Nc1cc(-n2c(=O)cc(C(F)(F)F)n(C)c2=O)c(F)cc1Cl (stereo not drawn)"
  Herbicidal rating ECHORC: 9.0
- Compound: "C=CCN1C(=O)CSC1=Nc1cc(N2C(=O)C3=C(CCCC3)C2=O)c(F)cc1Cl"
  Herbicidal rating ECHORC: 3.5
- Compound: "CCOC(=O)CN1C(=O)C(CC(=O)O)S/C1=N/c1cc(-n2c(=O)cc(C(F)(F)F)n(C)c2=O)c(F)cc1Cl (stereo not drawn)"
  Herbicidal rating ECHORC: 0.0
- Compound: "CCOC(=O)CN1CC(=O)N(CC(=O)OCC)C1=Nc1cc(-n2c(=O)cc(C(F)(F)F)n(C)c2=O)c(F)cc1Cl"
  Herbicidal rating ECHORC: 4.0
- Compound: "Cn1c(C(F)(F)F)cc(=O)n(-c2cc(N=C3NC(=O)CS3)c(Cl)cc2F)c1=O"
  Herbicidal rating ECHORC: 2.0
- Compound: "CCOC(=O)CN1C(=O)C(Cc2ccccc2OC)SC1=Nc1cc(-n2c(=O)cc(C(F)(F)F)n(C)c2=O)c(F)cc1Cl (stereo not drawn)"
  Herbicidal rating ECHORC: 7.0
- Compound: "CCC1SC(=Nc2cc(N3C(=O)C4=C(CCCC4)C3=O)c(F)cc2Cl)N(C)C1=O (stereo not drawn)"
  Herbicidal rating ECHORC: 1.0
- Compound: "CN1C(=O)CS/C1=N/c1cc(-n2c(=O)cc(C(F)(F)F)n(C)c2=O)c(F)cc1Cl"
  Herbicidal rating ECHORC: 9.0
- Compound: "CCOC(=O)CN1C(=O)CSC1=Nc1cc(-n2c(=O)cc(C(F)(F)F)n(C)c2=O)c(F)cc1Cl"
  Herbicidal rating ECHORC: 7.5

====

test system: ECHORC (Watergrass (Calif.)); test: Preemergence weed control under flooded paddy conditions; format: in vivo, Echinochloa oryzoides; details: 0.0625 kg/ha, rated 3-4 weeks after treatment
Property Measured: herbicidal effect rating, ECHORC

- Molecule: "CC(C)S(=O)(=O)NC(=O)CC1SC(=Nc2cc(-n3c(=O)cc(C(F)(F)F)n(C)c3=O)c(F)cc2Cl)N(C)C1=O (centres unmarked) [Compound 119]"
  Study System: "ECHORC (Watergrass (Calif.))"
  Meas Value: 9.0
- Molecule: "COc1cc(CN2C(=O)CSC2=Nc2cc(-n3c(=O)cc(C(F)(F)F)n(C)c3=O)c(F)cc2Cl)cc(OC)c1OC [Compound 140]"
  Study System: "ECHORC (Watergrass (Calif.))"
  Meas Value: 5.0
- Molecule: "CCOC(=O)CN1C(=O)C(OC)SC1=Nc1cc(-n2c(=O)cc(C(F)(F)F)n(C)c2=O)c(F)cc1Cl (centres unmarked) [Compound 160]"
  Study System: "ECHORC (Watergrass (Calif.))"
  Meas Value: 0.0
- Molecule: "Cc1ccccc1CN1C(=O)CSC1=Nc1cc(-n2c(=O)cc(C(F)(F)F)n(C)c2=O)c(F)cc1Cl [Compound 129]"
  Study System: "ECHORC (Watergrass (Calif.))"
  Meas Value: 9.0
- Molecule: "COC(=O)C(C)OC(=O)CN1C(=O)CSC1=Nc1cc(-n2c(=O)cc(C(F)(F)F)n(C)c2=O)c(F)cc1Cl (centres unmarked) [Compound 116]"
  Study System: "ECHORC (Watergrass (Calif.))"
  Meas Value: 5.0
- Molecule: "COCCCN1C(=O)CSC1=Nc1cc(-n2c(=O)cc(C(F)(F)F)n(C)c2=O)c(F)cc1Cl [Compound 172]"
  Study System: "ECHORC (Watergrass (Calif.))"
  Meas Value: 9.0
- Molecule: "CN(C)c1ccc(CN2C(=O)CSC2=Nc2cc(-n3c(=O)cc(C(F)(F)F)n(C)c3=O)c(F)cc2Cl)cc1 [Compound 138]"
  Study System: "ECHORC (Watergrass (Calif.))"
  Meas Value: 9.0
- Molecule: "Cn1c(C(F)(F)F)cc(=O)n(-c2cc(N=C3SCC(=O)N3Cc3cccnc3)c(Cl)cc2F)c1=O [Compound 132]"
  Study System: "ECHORC (Watergrass (Calif.))"
  Meas Value: 4.0
- Molecule: "Cn1c(C(F)(F)F)cc(=O)n(-c2cc(N=C3SCC(=O)N3Cc3cccc(Cl)c3)c(Cl)cc2F)c1=O [Compound 136]"
  Study System: "ECHORC (Watergrass (Calif.))"
  Meas Value: 7.0
- Molecule: "Cn1c(C(F)(F)F)cc(=O)n(-c2cc(N=C3SCC(=O)N3Cc3cc(Cl)cc(Cl)c3)c(Cl)cc2F)c1=O [Compound 150]"
  Study System: "ECHORC (Watergrass (Calif.))"
  Meas Value: 7.0
- Molecule: "Cc1cc(C)cc(CN2C(=O)CSC2=Nc2cc(-n3c(=O)cc(C(F)(F)F)n(C)c3=O)c(F)cc2Cl)c1 [Compound 146]"
  Study System: "ECHORC (Watergrass (Calif.))"
  Meas Value: 9.0
- Molecule: "Cn1c(C(F)(F)F)cc(=O)n(-c2cc(N=C3SCC(=O)N3Cc3ccc(C(F)(F)F)cc3)c(Cl)cc2F)c1=O [Compound 141]"
  Study System: "ECHORC (Watergrass (Calif.))"
  Meas Value: 5.0
- Molecule: "Cn1c(C(F)(F)F)cc(=O)n(-c2cc(N=C3SCC(=O)N3CC(=O)OCC3CCCCC3)c(Cl)cc2F)c1=O [Compound 123]"
  Study System: "ECHORC (Watergrass (Calif.))"
  Meas Value: 9.0
- Molecule: "CCOC(=O)CN1C(=O)C(CC(=O)O)SC1=Nc1cc(N2C(=O)CC(C(F)(F)F)CC2=O)c(F)cc1Cl (centres unmarked) [Compound 170]"
  Study System: "ECHORC (Watergrass (Calif.))"
  Meas Value: 9.0

====

System: IPOHE (Morningglory, Ivyleaf)
Test: Preemergence herbicidal evaluation
Assay type: in vivo, Ipomoea hederacea
Settings: rate 0.0156 kg/ha; rated 4-5 weeks after treatment
Description: Results of herbicide evaluation are expressed on a rating scale (0-9). The scale is based upon a visual observation of plant stand, vigor, malformation, size, chlorosis and overall plant appearance as compared with a control. […] The compounds evaluated are reported by compound number given in Example 37.
In this section, each of the compounds is paired with its reported Preemergence herbicidal rating IPOHE.
Property Measured: Preemergence herbicidal rating IPOHE

- Compound: "CCOC(=O)[C@H](Cc1ccccc1)N1C(=O)CSC1=Nc1cc(-n2c(=O)cc(C(F)(F)F)n(C)c2=O)c(F)cc1Cl"
  Meas Value: 0.0
- Compound: "CCOC(=O)CN1C(=O)CN(C)C1=Nc1cc(-n2c(=O)cc(C(F)(F)F)n(C)c2=O)c(F)cc1Cl"
  Meas Value: 0.0
- Compound: "CCOC(=O)CN1C(=O)C(CC(=O)OC)S/C1=N/c1cc(-n2c(=O)cc(C(F)(F)F)n(C)c2=O)c(F)cc1Cl (centres unmarked)"
  Meas Value: 1.5
- Compound: "Cn1c(C(F)(F)F)cc(=O)n(-c2cc(N=C3SCC(=O)N3CC(=O)OC(C)(C)C)c(Cl)cc2F)c1=O"
  Meas Value: 0.0
- Compound: "COC(=O)[C@@H](Cc1ccccc1)N1C(=O)CSC1=Nc1cc(-n2c(=O)cc(C(F)(F)F)n(C)c2=O)c(F)cc1Cl"
  Meas Value: 0.0

====

Recorded CYPIR herbicidal effect rating for the following compounds
test system: CYPIR (Rice Flatsedge); assay: Preemergence weed control under flooded paddy conditions; type: in vivo, Cyperus iria; details: 0.0625 kg/ha, rated 3-4 weeks after treatment

- Compound: "C#CCOC(=O)CC1SC(=Nc2cc(-n3c(=O)cc(C(F)(F)F)n(C)c3=O)c(F)cc2Cl)N(CC=C)C1=O (centres unmarked) [Compound 67]"
  CYPIR herbicidal effect rating: 5.0
- Compound: "COC(=O)[C@@H](Cc1ccccc1)N1C(=O)CSC1=Nc1cc(-n2c(=O)cc(C(F)(F)F)n(C)c2=O)c(F)cc1Cl [Compound 74]"
  CYPIR herbicidal effect rating: 0.0
- Compound: "C[C@H](C(=O)O)N1C(=O)CSC1=Nc1cc(-n2c(=O)cc(C(F)(F)F)n(C)c2=O)c(F)cc1Cl [Compound 70]"
  CYPIR herbicidal effect rating: 2.0
- Compound: "C=CCOC(=O)CC1SC(=Nc2cc(-n3c(=O)cc(C(F)(F)F)n(C)c3=O)c(F)cc2Cl)N(CC=C)C1=O (centres unmarked) [Compound 65]"
  CYPIR herbicidal effect rating: 7.0
- Compound: "C=CCN1C(=O)C(CC(=O)NC)SC1=Nc1cc(-n2c(=O)cc(C(F)(F)F)n(C)c2=O)c(F)cc1Cl (centres unmarked) [Compound 84]"
  CYPIR herbicidal effect rating: 7.0
